target: DLG1_3, Q12959; experiment: holdup assay; parameters: key: below the threshold = too weak to quantify, mostly under pKd 3.1 to 4; conditions: plain residues with an end cap or a label only (N-terminal biotin on a linker: ado-ado)
Sequence (Q12959 457-571): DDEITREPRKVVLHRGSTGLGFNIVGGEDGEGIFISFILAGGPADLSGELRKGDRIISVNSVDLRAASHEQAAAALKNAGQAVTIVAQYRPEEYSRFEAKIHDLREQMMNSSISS

>  <BINDER>
GSGAVEMESV [AQP6, Q13520]

>  <pKd>
below the threshold

$$$$
>  <BINDER>
EALLQMESVA [CAVIN3, Q969G5]

>  <pKd>
below the threshold

$$$$
>  <BINDER>
YLEPVLSSEL [ATP2A2, P16615;P16615-3]

>  <pKd>
below the threshold

$$$$
>  <BINDER>
SGSLKLMTTV [DACT1, Q9NYF0]

>  <pKd>
3.55

$$$$
>  <BINDER>
LPAHHNATRL [SLC34A1, Q06495;Q06495-1]

>  <pKd>
below the threshold

$$$$
>  <BINDER>
QPCFNKLFPL [LPXN, O60711]

>  <pKd>
below the threshold

$$$$
